- measured.target: EGFR L858R/T790M/C797S (Homo sapiens, UniProt P00533, C797S/L858R/T790M)
- Sequence (P00533 25-1210 T790M/C797S/L858R): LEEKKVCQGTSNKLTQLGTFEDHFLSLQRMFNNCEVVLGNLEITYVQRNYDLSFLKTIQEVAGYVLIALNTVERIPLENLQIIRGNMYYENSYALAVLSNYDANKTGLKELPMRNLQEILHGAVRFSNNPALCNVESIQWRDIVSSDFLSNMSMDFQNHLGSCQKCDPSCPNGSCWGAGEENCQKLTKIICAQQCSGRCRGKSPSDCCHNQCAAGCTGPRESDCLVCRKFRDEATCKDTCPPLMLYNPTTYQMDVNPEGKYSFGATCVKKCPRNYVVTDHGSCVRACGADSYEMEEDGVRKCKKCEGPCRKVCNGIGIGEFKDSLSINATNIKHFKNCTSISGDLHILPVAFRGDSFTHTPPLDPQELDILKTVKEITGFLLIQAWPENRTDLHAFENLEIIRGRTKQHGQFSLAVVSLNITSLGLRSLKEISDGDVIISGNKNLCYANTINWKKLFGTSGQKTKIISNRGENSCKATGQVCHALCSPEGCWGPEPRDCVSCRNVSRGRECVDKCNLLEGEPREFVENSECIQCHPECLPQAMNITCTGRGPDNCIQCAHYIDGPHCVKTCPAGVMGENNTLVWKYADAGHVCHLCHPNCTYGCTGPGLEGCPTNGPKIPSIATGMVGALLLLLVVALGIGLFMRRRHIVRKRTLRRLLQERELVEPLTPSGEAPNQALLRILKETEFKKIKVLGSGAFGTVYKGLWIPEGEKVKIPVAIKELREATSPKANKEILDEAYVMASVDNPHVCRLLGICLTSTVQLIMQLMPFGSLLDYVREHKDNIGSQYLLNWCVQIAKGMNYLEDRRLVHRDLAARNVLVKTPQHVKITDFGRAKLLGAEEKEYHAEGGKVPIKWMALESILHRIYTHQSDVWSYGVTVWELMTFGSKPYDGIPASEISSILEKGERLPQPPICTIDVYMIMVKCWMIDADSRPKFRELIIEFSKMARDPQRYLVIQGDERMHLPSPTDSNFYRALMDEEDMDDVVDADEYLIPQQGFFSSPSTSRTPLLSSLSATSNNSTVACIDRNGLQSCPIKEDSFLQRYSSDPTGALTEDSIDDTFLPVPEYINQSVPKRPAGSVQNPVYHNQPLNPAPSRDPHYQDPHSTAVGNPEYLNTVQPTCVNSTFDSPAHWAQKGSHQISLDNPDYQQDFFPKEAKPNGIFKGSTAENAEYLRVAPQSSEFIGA
- experiment.notes: Biochemical EGFR kinase assay (Lance Ultra TR-FRET), triple mutant L858R/T790M/C797S
- conditions.used: ATP at Km; read-out: IC50 L858R/T790M/C797S, Km ATP
- Method: Biochemical EGFR kinase assays were conducted using Lance Ultra time-resolved fluorescence resonance energy transfer (TR-FRET) technology from Perkin-Elmer. […] Each kinase reactions were incubated at room temperature for 1 hour and then stopped by the addition of 4 μL of stop solution (10 mM EDTA). […] After 60 minutes incubation at room temperature the LANCE signal was measured on an EnVision Multilabel Reader (Perkin-Elmer). […]
Here the recorded IC50 is given for each entry.

{"columns": ["record.smiles", "IC50 (nM)"],
 "data": [
  ["CN1CCC(Oc2ccc(-c3cnc(Nc4nc(-c5cnn(S(=O)(=O)C6CC6)c5)ncc4F)cc3N[C@H]3CC[C@@](C)(O)CC3)nc2)CC1", 0.1],
  ["O=S(=O)(C1CC1)n1cc(-c2nccc(Nc3cc(N[C@H]4CC[C@@H](CO)CC4)c(-c4ccc(OC(F)(F)F)cn4)cn3)n2)cn1", 1],
  ["CN(C)C[C@H]1CC[C@@H](Nc2cc(Nc3ccnc(-c4cnn(S(=O)(=O)C5CC5)c4)n3)ncc2-c2ccc(OC(F)(F)F)cn2)CC1", 0.3]
]}

----------
- measured.target: EGFR del19/C797S (Homo sapiens, UniProt P00533, C797S/DEL746-750)
- Sequence (P00533 with tags, fused parts or gaps DEL746-750/C797S): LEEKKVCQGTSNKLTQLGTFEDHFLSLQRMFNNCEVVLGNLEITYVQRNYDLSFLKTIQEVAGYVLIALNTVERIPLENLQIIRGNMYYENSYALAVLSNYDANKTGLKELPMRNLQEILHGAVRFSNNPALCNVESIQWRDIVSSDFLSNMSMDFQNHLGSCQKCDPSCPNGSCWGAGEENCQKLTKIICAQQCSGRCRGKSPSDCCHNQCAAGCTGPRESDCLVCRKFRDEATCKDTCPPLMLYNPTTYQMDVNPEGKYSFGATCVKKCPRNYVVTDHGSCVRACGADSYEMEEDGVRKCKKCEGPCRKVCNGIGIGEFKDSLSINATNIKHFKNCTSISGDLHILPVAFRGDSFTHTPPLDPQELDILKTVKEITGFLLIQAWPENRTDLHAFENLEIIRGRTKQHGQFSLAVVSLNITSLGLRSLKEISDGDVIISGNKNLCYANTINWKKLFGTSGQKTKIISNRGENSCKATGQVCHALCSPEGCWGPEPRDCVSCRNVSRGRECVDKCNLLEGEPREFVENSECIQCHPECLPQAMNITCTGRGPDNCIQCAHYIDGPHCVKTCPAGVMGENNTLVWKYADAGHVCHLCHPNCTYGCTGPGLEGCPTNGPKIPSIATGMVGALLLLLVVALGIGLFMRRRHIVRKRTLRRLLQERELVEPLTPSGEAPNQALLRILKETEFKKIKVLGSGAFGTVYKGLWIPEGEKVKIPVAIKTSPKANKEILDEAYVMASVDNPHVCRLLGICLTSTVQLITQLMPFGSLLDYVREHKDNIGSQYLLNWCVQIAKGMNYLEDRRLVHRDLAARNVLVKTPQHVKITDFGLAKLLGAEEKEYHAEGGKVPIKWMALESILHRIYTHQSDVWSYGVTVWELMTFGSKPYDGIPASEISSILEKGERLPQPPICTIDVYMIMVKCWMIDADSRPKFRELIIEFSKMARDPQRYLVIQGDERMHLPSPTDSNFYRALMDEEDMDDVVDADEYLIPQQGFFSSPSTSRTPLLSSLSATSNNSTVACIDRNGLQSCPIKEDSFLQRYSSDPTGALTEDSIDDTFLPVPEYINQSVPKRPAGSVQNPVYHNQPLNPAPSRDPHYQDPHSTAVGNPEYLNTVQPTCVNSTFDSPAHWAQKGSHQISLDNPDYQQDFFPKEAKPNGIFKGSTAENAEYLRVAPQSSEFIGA
- experiment.notes: Biochemical EGFR kinase assay (Lance Ultra TR-FRET), double mutant del19/C797S
- conditions.used: ATP at Km; read-out: IC50 del19/C797S, Km ATP
- Experimental: Biochemical EGFR kinase assays were conducted using Lance Ultra time-resolved fluorescence resonance energy transfer (TR-FRET) technology from Perkin-Elmer. […] Each kinase reactions were incubated at room temperature for 1 hour and then stopped by the addition of 4 μL of stop solution (10 mM EDTA). […] After 60 minutes incubation at room temperature the LANCE signal was measured on an EnVision Multilabel Reader (Perkin-Elmer). […]
Here the recorded IC50 is given for each entry.

{"columns": ["compound", "measured.target", "IC50"],
 "data": [
  ["O=S(=O)(C1CC1)n1cc(-c2nccc(Nc3cc(NC4CCC(F)CC4)c(-c4cnc(OC5CCOC5)cn4)cn3)n2)cn1 (stereo not drawn) [Example 152]", "EGFR del19/C797S (Homo sapiens, UniProt P00533, C797S/DEL746-750)", "214 nM"],
  ["C[C@]1(O)CC[C@@H](Nc2nccc(-c3cnc(Nc4ccnc(-c5cnn(S(=O)(=O)C6CC6)c5)n4)cc3N[C@H]3CC[C@@](C)(O)CC3)n2)CC1 [Example 191]", "EGFR del19/C797S (Homo sapiens, UniProt P00533, C797S/DEL746-750)", "2.3 nM"],
  ["CN1CCN(C(=O)c2ccc(-c3cnc(Nc4ccnc(-c5cnn(S(=O)(=O)C6CC6)c5)n4)cc3N[C@H]3CC[C@@H](CN(C)C)CC3)nc2)CC1 [Example 204]", "EGFR del19/C797S (Homo sapiens, UniProt P00533, C797S/DEL746-750)", "0.2 nM"],
  ["C[C@]1(O)CC[C@@H](Nc2cc(Nc3ccnc(-c4cnn(S(=O)(=O)C5CC5)c4)n3)ncc2-c2ccc(OC(F)(F)F)cn2)CC1 [Example 194]", "EGFR del19/C797S (Homo sapiens, UniProt P00533, C797S/DEL746-750)", "5.5 nM"],
  ["C[C@]1(O)CC[C@@H](Nc2cc(Nc3ccnc(-c4cnn(S(=O)(=O)C5CC5)c4)n3)ncc2-c2ccc(OCCO)cn2)CC1 [Example 205]", "EGFR del19/C797S (Homo sapiens, UniProt P00533, C797S/DEL746-750)", "0.7 nM"],
  ["CC(C)(O)c1ccc(-c2cnc(Nc3ccnc(-c4cnn(S(=O)(=O)C5CC5)c4)n3)cc2N[C@H]2CC[C@@H](F)CC2)nc1 [Example 173]", "EGFR del19/C797S (Homo sapiens, UniProt P00533, C797S/DEL746-750)", "7.9 nM"],
  ["CN1CCC(Oc2ccc(-c3cnc(Nc4ccnc(-c5cnn(S(=O)(=O)C6CC6)c5)n4)cc3NC3CCCN(CCF)C3)nc2)CC1 (stereo not drawn) [Example 257]", "EGFR del19/C797S (Homo sapiens, UniProt P00533, C797S/DEL746-750)", "1 nM"],
  ["C[C@]1(O)CC[C@@H](Nc2cc(Nc3ccnc(-c4cnn(S(=O)(=O)C5CC5)c4)n3)ncc2-c2cnc(F)cn2)CC1 [Example 185]", "EGFR del19/C797S (Homo sapiens, UniProt P00533, C797S/DEL746-750)", "6.7 nM"],
  ["CC(C)(O)[C@H]1CC[C@@H](Nc2cc(Nc3ccnc(-c4cnn(S(=O)(=O)C5CC5)c4)n3)ncc2-c2ccc(S(=O)(=O)N3CCOCC3)cn2)CC1 [Example 184]", "EGFR del19/C797S (Homo sapiens, UniProt P00533, C797S/DEL746-750)", "2.7 nM"],
  ["CC(C)(O)c1ccc(-c2cnc(Nc3ccnc(-c4cnn(S(=O)(=O)C5CC5)c4)n3)cc2NC2CCCN(CCF)C2)nc1 (stereo not drawn) [Example 177]", "EGFR del19/C797S (Homo sapiens, UniProt P00533, C797S/DEL746-750)", "3.7 nM"],
  ["C[C@]1(O)CC[C@@H](Nc2cc(Nc3nc(-c4cnn(S(=O)(=O)C5CC5)c4)ncc3F)ncc2-c2ccc(CC(F)(F)F)cn2)CC1 [Example 299]", "EGFR del19/C797S (Homo sapiens, UniProt P00533, C797S/DEL746-750)", "28.6 nM"],
  ["CN1CCC(Oc2ccc(-c3cnc(Nc4ccnc(-c5cnn(S(=O)(=O)C6CC6)c5)n4)cc3NC3CCN(CC(F)F)CC3)nc2)CC1 [Example 258]", "EGFR del19/C797S (Homo sapiens, UniProt P00533, C797S/DEL746-750)", "0.7 nM"]
]}

These data points were gathered from patent US12258328B2.
